Source of measurements: patent US6878713B2

In this section, each of the compounds is paired with its reported melting point.

Observe how each entry below is paired with its result.
CCNC1CCN(c2c(F)c(N)c3c(=O)c(C(=O)O)cn(C4CC4)c3c2OC)CC1(C)C (stereo not drawn): 205 °C (dec.)
CCC1CN(c2c(F)cc3c(=O)c(C(=O)O)cn(C4CC4)c3c2OC)CCC1O (stereo not drawn): 188 to 190 °C
Cc1c(N2CCC(N(C)C)C(C)C2)c(F)cc2c(=O)c(C(=O)O)cn(C3CC3)c12 (stereo not drawn): 221 °C
CNC1CCN(c2c(F)c(N)c3c(=O)c(C(=O)O)cn(C4CC4)c3c2OC)CC1C (stereo not drawn): 228 to 230 °C (dec.)
CCNC1CCN(c2c(F)cc3c(=O)c(C(=O)O)cn(C4CC4)c3c2C)CC1(C)C (stereo not drawn): 201 to 203 °C

INPUT: Provide only the value of recorded melting point for COc1c(N2CCC(N(C)C)C(C)(C)C2)c(F)c(N)c2c(=O)c(C(=O)O)cn(C3CC3)c12 (stereo not drawn)
OUTPUT: 178 °C (dec.)

INPUT: Fill in reported melting point for this entry: COc1c(N2CC(C)C(NC3CC3)C(C)C2)c(F)c(N)c2c(=O)c(C(=O)O)cn(C3CC3)c12 (stereo not drawn)
OUTPUT: 248 °C

INPUT: Hello, please tell me recorded melting point for this one: COc1c(N2CCC(O)C(C)C2)c(F)c(N)c2c(=O)c(C(=O)O)cn(C3CC3)c12 (stereo not drawn)
OUTPUT: 240 to 244 °C

INPUT: Answer with the recorded melting point of Cc1c(N2CC[C@@H](N)[C@H](C)C2)c(F)cc2c(=O)c(C(=O)O)cn(C3CC3)c12.Cl (single isomer, unassigned) only.
OUTPUT: 262 to 265 °C
